target: UniProt P30561; experiment: In vitro assay 3: antagonism in mouse cell line (AHR transactivation, firefly luciferase reporter, kynurenic acid prestimulated); assay type: cell-based; conditions: Hepa 1c1c7 cells, 200 μM kynurenic acid, 20 hours, firefly luciferase reporter, read-out: AHR Antagonism Mouse IC50
Sequence (P30561 whole entry P471L/N533S/M589L, form open): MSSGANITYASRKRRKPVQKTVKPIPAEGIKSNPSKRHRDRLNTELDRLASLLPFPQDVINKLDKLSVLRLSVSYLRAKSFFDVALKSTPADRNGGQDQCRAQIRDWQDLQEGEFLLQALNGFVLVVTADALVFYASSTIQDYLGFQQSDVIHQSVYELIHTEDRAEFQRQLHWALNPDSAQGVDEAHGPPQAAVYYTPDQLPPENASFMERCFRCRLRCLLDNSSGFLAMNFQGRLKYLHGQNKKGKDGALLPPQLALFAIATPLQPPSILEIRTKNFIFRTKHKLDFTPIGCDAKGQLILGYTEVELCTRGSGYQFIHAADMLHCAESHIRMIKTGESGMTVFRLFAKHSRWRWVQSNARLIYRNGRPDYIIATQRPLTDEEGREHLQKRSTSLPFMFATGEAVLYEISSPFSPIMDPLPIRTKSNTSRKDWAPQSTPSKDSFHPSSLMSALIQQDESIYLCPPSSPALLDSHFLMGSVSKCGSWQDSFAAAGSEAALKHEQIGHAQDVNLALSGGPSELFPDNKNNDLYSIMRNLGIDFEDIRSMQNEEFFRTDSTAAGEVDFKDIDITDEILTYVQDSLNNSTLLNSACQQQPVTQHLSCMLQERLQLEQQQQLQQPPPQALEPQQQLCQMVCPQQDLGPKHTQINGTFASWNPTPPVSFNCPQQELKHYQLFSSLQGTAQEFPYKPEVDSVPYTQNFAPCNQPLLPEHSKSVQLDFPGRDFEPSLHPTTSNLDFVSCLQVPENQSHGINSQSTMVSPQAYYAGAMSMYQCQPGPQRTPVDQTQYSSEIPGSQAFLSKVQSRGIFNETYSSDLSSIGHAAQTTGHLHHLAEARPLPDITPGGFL
MEASUREMENT_KIND: pIC50
Numbers only, as −log10 of the molar value.

compound="COc1ccc(-c2nc3c4cccc(S(C)(=O)=O)c4nc(N[C@@H]4CCCCNC4=O)n3n2)cc1 [Example 842]" measurement_kind=pIC50 assay_value=8.00
compound="O=C1NCCNC[C@H]1Nc1nc2c(Br)cccc2c2nc(-c3cnn(CC4CC4)c3)nn12 [Example 968]" measurement_kind=pIC50 assay_value=8.13
compound="C[C@@H]1COCCN1C(=O)[C@@H](C)Nc1nc2c(Br)cccc2c2nc(-c3cnn(C)c3)nn12 [Example 912]" measurement_kind=pIC50 assay_value=7.86
compound="CC(C)[C@@H](Nc1nc2c(Br)cccc2c2nc(-c3cnn(C)c3)nn12)C(=O)N1CCOCC1 [Example 926]" measurement_kind=pIC50 assay_value=8.21
compound="COc1ccc(-c2nc3c4cccc(Br)c4nc(N[C@H](C)C(=O)N4C[C@H]5C[C@@H]4CN5C)n3n2)cc1 [Example 903]" measurement_kind=pIC50 assay_value=8.18
compound="CCOC(=O)[C@@H](C)Nc1nc2c(Br)cccc2c2nc(-c3cnn(C)c3)nn12 [Example 866]" measurement_kind=pIC50 assay_value=6.84
compound="COc1ccc(-c2nc3c4ccccc4nc(N[C@H](C)C(=O)NCCN4CCN(C(=O)OC(C)(C)C)CC4)n3n2)cc1 [Example 884]" measurement_kind=pIC50 assay_value=8.08
compound="COc1ccc(-c2nc3c4cccc(Br)c4nc(N[C@H](C)C(=O)O)n3n2)cc1 [Example 870]" measurement_kind=pIC50 assay_value=7.97

Fill in pIC50 for each of the 4 compounds listed.
1. COCCNC(=O)[C@H](Nc1nc2c(Br)cccc2c2nc(-c3cnn(C)c3)nn12)C(C)C [Example 929]
2. COc1ccc(-c2nc3c4cccc(CO)c4nc(N[C@@H]4CCCCNC4=O)n3n2)cc1 [Example 860]
3. CNCCNC(=O)[C@@H](C)Nc1nc2ccccc2c2nc(-c3ccc(OC)cc3)nn12 [Example 990]
4. Cn1nccc1-c1nc2c3cccc(C(F)(F)F)c3nc(N[C@H]3CCCCNC3=O)n2n1 [Example 807]

7.96
7.80
7.13
7.20

----------
Consider the following compounds; for each one, report its IC50.
molecular target: AHR (Homo sapiens); construct: U87 MG glioblastoma cells (ATCC #HTB-14) endogenously expressing AHR; endogenous in cells; host or cells: U87 MG glioblastoma cells (ATCC #HTB-14); experiment: In vitro assay 1: antagonism in human cell line (AHR transactivation, firefly luciferase reporter, kynurenic acid prestimulated); type: cell-based; settings: AHR Antagonism Human IC50 [M]
Sequence (P35869 11-848): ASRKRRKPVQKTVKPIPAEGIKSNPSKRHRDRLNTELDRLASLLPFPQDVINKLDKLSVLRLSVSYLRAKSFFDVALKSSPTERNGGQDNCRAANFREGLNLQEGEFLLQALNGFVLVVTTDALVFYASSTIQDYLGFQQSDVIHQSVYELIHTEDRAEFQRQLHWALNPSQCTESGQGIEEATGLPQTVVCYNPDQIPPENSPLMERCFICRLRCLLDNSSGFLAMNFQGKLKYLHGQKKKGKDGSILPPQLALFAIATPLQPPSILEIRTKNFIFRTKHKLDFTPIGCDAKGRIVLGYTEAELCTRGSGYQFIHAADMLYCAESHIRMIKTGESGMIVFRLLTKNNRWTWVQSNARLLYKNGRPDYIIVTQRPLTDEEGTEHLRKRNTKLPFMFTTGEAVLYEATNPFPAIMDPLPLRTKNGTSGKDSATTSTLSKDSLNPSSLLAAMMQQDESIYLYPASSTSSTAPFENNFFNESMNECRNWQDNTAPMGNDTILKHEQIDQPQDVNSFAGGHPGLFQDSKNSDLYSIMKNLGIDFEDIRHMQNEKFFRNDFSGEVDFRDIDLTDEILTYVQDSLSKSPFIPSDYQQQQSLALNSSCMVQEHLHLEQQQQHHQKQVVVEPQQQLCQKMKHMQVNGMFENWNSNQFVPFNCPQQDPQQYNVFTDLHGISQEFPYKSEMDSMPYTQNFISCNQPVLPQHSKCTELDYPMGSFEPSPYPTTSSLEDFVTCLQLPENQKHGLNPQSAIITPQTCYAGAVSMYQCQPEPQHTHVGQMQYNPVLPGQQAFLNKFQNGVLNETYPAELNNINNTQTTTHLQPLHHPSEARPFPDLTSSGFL
One number for each entry, in M.

compound="CS(=N)(=O)c1ccccc1-c1nc2c3ccccc3nc(N[C@@H]3CCCCNC3=O)n2n1 (stereo partly drawn) [Example 650]" assay_system="AHR (Homo sapiens)" assay_value=1.1e-07

Can you look up the measured IC50 of "Cc1ccccc1-c1nc2c3ccccc3nc(N[C@@H]3CCCCNC3=O)n2n1" for me? 3.03e-10
